# credit: PubChem BioAssay (NCATS)

System: CP191
METHOD_DESCRIPTION: qHTS profiling for inhibitors of Plasmodium falciparum proliferation (AID 504749); further: nearly all actives have a fitted effect of over 60% in size
SETUP_CONDITIONS: P. falciparum in erythrocytes, SYBR Green DNA, 72 h; series mostly up to 28.7 µM
Records with an inconclusive call do not appear. Activity calls are given as the source filed them. The call rests on the fitted dose curve; in most records, active means well fitted inhibition curve with a large enough effect; inconclusive means small, poorly fitted or top-dose-only effect; inactive means flat fitted curve, though single readings scatter.
Permitted responses: active, inactive

// known answers, use as guide
# COMPOUND, ASSIGNED_CLASS
rows = [
    ("C[N+]1([O-])[C@@H]2CC(OC(=O)[C@@H](CO)c3ccccc3)C[C@@H]1[C@H]1O[C@H]12 (stereo partly specified)", "inactive"),
    ("C[C@@H]1O[C@H](O[C@@H]2C=C3CC[C@H]4[C@@H](CC[C@]5(C)[C@@H](c6ccc(=O)oc6)CC[C@]45O)[C@@]3(C)CC2)[C@@H](O)[C@H](O)[C@@H]1O", "inactive"),
    ("C[C@@]12CC[C@H]3[C@@H](CC[C@@H]4C[C@H]5S[C@H]5C[C@]43C)[C@H]1CC[C@H]2O", "inactive"),
]

Continue with the compound presented below.
Problem: // return assay outcome for C[C@]12CC[C@H](O)C[C@H]1CCC1C2CC[C@]2(C)[C@@H](c3ccc(=O)oc3)C[C@H]3O[C@]132 (stereo partly specified)
Solution: inactive
